Subject Of Test: T1, recombinant human EGFR extracellular domain with 6xHis (human, UniProt P00533 25-645)
T1 construct: In-house produced; also called 6xHis EGFR ECD; soluble human EGFR ECD; not shown: 6xHis tag
Procedure Summary: SPR competition, competitor 1277
Procedure: SPR analysis was performed on a Biacore 3000 machine containing four flow cells. A CM5 Biacore chip was conjugated with 10,000 Resonance units (Ru) polyclonal anti-His antibody to flow cells 1-4 according to the manufacturer's instructions. […] Immediately after antigen injection the maximal binding of the Anti-EGFR mAb without competition was established in each flow cell during a reference run. […]
Measure Name: % inhibition (%)
Just the number please, in %, no unit attached.

# input binder: antibody 1260 (antibody, human IgG1, kappa, V domains shown, Chimeric IgG1 kappa) VH: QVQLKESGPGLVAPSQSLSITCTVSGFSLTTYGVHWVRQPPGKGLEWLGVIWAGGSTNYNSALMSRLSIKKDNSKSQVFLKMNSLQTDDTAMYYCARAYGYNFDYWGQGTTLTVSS VL: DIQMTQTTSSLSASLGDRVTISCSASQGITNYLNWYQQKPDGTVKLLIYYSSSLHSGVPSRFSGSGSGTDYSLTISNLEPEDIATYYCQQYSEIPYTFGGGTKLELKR ; wanted: its % inhibition
25
